molecular target: Human recombinant FAP (Homo sapiens, UniProt Q12884); experiment: Surface plasmon resonance (Biacore) assay
Sequence (Q12884 whole entry): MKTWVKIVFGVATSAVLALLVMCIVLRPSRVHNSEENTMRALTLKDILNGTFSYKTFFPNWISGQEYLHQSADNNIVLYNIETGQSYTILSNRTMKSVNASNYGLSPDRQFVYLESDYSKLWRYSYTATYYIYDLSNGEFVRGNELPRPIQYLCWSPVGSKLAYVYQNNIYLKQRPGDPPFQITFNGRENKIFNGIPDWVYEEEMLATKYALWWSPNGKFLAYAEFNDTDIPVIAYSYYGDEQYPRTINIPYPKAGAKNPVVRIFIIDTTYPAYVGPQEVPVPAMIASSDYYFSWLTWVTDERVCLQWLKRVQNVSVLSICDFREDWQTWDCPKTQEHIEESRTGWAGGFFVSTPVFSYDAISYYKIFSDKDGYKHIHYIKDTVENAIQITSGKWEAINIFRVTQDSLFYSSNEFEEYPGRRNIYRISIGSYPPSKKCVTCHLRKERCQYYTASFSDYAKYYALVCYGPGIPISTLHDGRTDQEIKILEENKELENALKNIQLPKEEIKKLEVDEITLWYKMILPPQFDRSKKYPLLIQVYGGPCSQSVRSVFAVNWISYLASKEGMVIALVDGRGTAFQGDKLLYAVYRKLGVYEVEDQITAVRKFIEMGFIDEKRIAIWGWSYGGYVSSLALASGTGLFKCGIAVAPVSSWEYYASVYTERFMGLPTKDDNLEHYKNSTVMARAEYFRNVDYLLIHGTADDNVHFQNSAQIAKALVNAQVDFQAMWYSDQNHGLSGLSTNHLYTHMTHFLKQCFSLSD
pKd: −log10 of the molar value. Numbered stars: 1 amine (or outer) side, 2 acyl side, 3 side chain; on linkers, the order of the positions; unused ones are H or OH. Bridge positions count the residues as written; N and C are the ends. Peptide text beside a SMILES is read from it. * marks the point of attachment. X17 = NC(=O)[C@H](CCCCNC(=O)CN1CCN(CC(=O)O)CCN(CC(=O)O)CCN(CC(=O)O)CC1)NC(=O)CCC(=O)NCCCOCCOCCOCCCN*; mXylylene = c1cc(C[*:1])cc(C[*:2])c1; Hexanoyl = CCCCCC(=O)*
measurement kind: pKd

The cases that follow already have their pKd on record.
CCCCCC(=O)N[C@H]1CSCc2cccc(c2)CSC[C@@H](C(=O)N[C@@H](CC(=O)O)C(=O)NCCCOCCOCCOCCCNC(=O)CCC(=O)N[C@@H](CCCCNC(=O)CN2CCN(CC(=O)O)CCN(CC(=O)O)CCN(CC(=O)O)CC2)C(N)=O)NC(=O)[C@H](Cc2ccccc2)NC(=O)[C@H](CCC(N)=O)NC(=O)[C@H]([C@@H](C)O)NC(=O)[C@@H]2CCCN2C(=O)[C@@H]2CCCN2C1=O [3BP-3395] (Hexanoyl-CPPTQFCD-X17; linker 1-7 via mXylylene): > 8.00
CCCCNC(=O)N[C@H]1CSCc2cc(CSCCNC(=O)CN3CCN(CC(=O)O)CCN(CC(=O)O)CCN(CC(=O)O)CC3)cc(c2)CSC[C@@H](C(=O)O)NC(=O)[C@H](Cc2ccccc2)NC(=O)[C@H](CCC(N)=O)NC(=O)[C@H]([C@@H](C)O)NC(=O)[C@@H]2CCCN2C(=O)[C@@H]2CCCN2C1=O: > 8.00

Field: next molecule
# input molecule: CCCC[C@H](NC(=O)CCC(=O)NCCCOCCOCCOCCCNC(=O)CN1CCN(C(=O)C(CNCCN)CNCCN)CC1)C(=O)N[C@H]1CSCc2cccc(c2)CSCC(C(=O)O)NC(=O)[C@H](Cc2ccccc2)NC(=O)[C@H](CCC(N)=O)NC(=O)[C@H]([C@@H](C)O)NC(=O)[C@@H]2CCCN2C(=O)[C@@H]2CCCN2C1=O (stereo partly drawn) ; wanted: its pKd 7.10 to 8.00

====

biological target: Human recombinant FAP (Homo sapiens, UniProt Q12884); test: FRET-based FAP protease activity assay; assay type: biochemical; parameters: purchased R&D systems 3715-SE; conditions: pIC50 Category (Activity), FRET-based FAP protease activity assay, recombinant human FAP, 37° C.
pIC50: −log10 of the molar value. Numbered stars: 1 amine (or outer) side, 2 acyl side, 3 side chain; on linkers, the order of the positions; unused ones are H or OH. Bridge positions count the residues as written; N and C are the ends. Square brackets hold non-standard residues; d marks the D form. Peptide text beside a SMILES is read from it. * marks the point of attachment. X13 = O=C(O)CN1CCN(CC(=O)O)CCN(CC(=O)N2CCN(Cc3cc(C[*:1])cc(C[*:2])c3)CC2)CCN(CC(=O)O)CC1; mXylylene = c1cc(C[*:1])cc(C[*:2])c1; NMeE = CN[C@@H](CCC(=O)O)C(=O)O; Hexanoyl = CCCCCC(=O)*
For each entry below, report its pIC50 value.

The cases that follow already have their pIC50 on record.
CCCCCC(=O)N[C@H]1CSCc2cc(cc(CN3CCN(C(=O)CN4CCN(CC(=O)O)CCN(CC(=O)O)CCN(CC(=O)O)CC4)CC3)c2)CSC[C@@H](C(=O)N[C@@H](CC(=O)O)C(N)=O)NC(=O)[C@H](Cc2ccccc2)NC(=O)[C@H](CCC(N)=O)NC(=O)[C@H](C)NC(=O)[C@@H]2CCCN2C(=O)[C@@H]2CCCN2C1=O [3BP-3745] (Hexanoyl-CPPAQFCD-NH2; linker 1-7 via X13): 6.10 to 7.00
CCCCCC(=O)N[C@H]1CSCc2cccc(c2)CSC[C@@H](C(N)=O)NC(=O)[C@H](Cc2ccccc2)NC(=O)[C@H](CCC(=O)O)N(C)C(=O)[C@H]([C@@H](C)O)NC(=O)[C@@H]2CCCN2C(=O)[C@@H]2CCCN2C1=O [3BP-3357] (Hexanoyl-CPPT[NMeE]FC-NH2; linker 1-7 via mXylylene): < 6.00

Field: next molecule
# input molecule: CCCCCC(=O)N[C@H]1CSCc2cc(cc(CN3CCN(C(=O)CN4CCN(CC(=O)O)CCN(CC(=O)O)CCN(CC(=O)O)CC4)CC3)c2)CSC[C@@H](C(=O)N[C@@H](CC(=O)O)C(N)=O)NC(=O)[C@H](Cc2ccccc2)NC(=O)[C@H](C)NC(=O)[C@H]([C@@H](C)O)NC(=O)[C@@H]2CCCN2C(=O)[C@@H]2CCCN2C1=O [3BP-3739] (Hexanoyl-CPPTAFCD-NH2; linker 1-7 via X13) ; wanted: its pIC50 6.10 to 7.00

====

For each entry below, report its tissue uptake at 0.25 h value.
experiment: in vivo; details: female, athymic nude, mouse, kidneys, iv
Give bare numbers, in %ID/g.

The cases that follow already have their tissue uptake at 0.25 h on record.
CCCCNC(=O)N[C@H]1CSCc2cc(CSCCNC(=O)CN3CCN(CC(=O)O)CCN(CC(=O)O)CC3)cc(c2)CSCC(C(=O)O)NC(=O)[C@H](Cc2ccccc2)NC(=O)[C@H](CCC(N)=O)NC(=O)[C@H]([C@@H](C)O)NC(=O)[C@@H]2CCCN2C(=O)[C@@H]2CCCN2C1=O (stereo partly drawn) [3BP-5210]: 37.3
CCCC[C@H](NC(=O)CCC(=O)NCCCOCCOCCOCCCNC(=O)CCC(C(=O)O)N1CCN(CC(=O)O)CCN(CC(=O)O)CC1)C(=O)N[C@H]1CSCc2cccc(c2)CSCC(C(=O)O)NC(=O)[C@H](Cc2ccccc2)NC(=O)[C@H](CCC(N)=O)NC(=O)[C@H]([C@@H](C)O)NC(=O)[C@@H]2CCCN2C(=O)[C@@H]2CCCN2C1=O (stereo partly drawn) [3BP-4714]: 5

Field: next compound
# input compound: CCCC[C@H](NC(=O)CCC(=O)NCCCOCCOCCOCCCNC(=O)CN1CCN(CC(=O)O)CCN(CC(=O)O)CC1)C(=O)N[C@H]1CSCc2cccc(c2)CSCC(C(=O)O)NC(=O)[C@H](Cc2ccccc2)NC(=O)[C@H](CCC(N)=O)NC(=O)[C@H]([C@@H](C)O)NC(=O)[C@@H]2CCCN2C(=O)[C@@H]2CCCN2C1=O (stereo partly drawn) [3BP-5201] ; wanted: its tissue uptake at 0.25 h 9.27

====

molecular target: UniProt Q12884
pIC50: −log10 of the molar value. Numbered stars: 1 amine (or outer) side, 2 acyl side, 3 side chain; on linkers, the order of the positions; unused ones are H or OH. Bridge positions count the residues as written; N and C are the ends. Square brackets hold non-standard residues; d marks the D form. Peptide text beside a SMILES is read from it. * marks the point of attachment. TBMB(SCH2CH2NH-DOTA) = O=C(O)CN1CCN(CC(=O)O)CCN(CC(=O)NCCSCc2cc(C[*:1])cc(C[*:2])c2)CCN(CC(=O)O)CC1; DOTA = O=C(O)CN1CCN(CC(=O)O)CCN(CC(=O)*)CCN(CC(=O)O)CC1; mXylylene = c1cc(C[*:1])cc(C[*:2])c1; Pyrazinecarbonyl = O=C(c1cnccn1)*; NMeF = CN[C@@H](Cc1ccccc1)C(=O)O; Orn = NCCC[C@H](N)C(=O)O; Hexanoyl = CCCCCC(=O)*; Nleu = CC(C)CNCC(=O)O; βAla = NCCC(=O)O
measurement kind: pIC50

The cases that follow already have their pIC50 on record.
CCCCCC(=O)N[C@H]1CSCc2cc(CSCCNC(=O)CN3CCN(CC(=O)O)CCN(CC(=O)O)CCN(CC(=O)O)CC3)cc(c2)CSC[C@@H](C(N)=O)NC(=O)[C@H](Cc2ccccc2)NC(=O)[C@H](CCC(=O)O)NC(=O)[C@H]([C@@H](C)O)NC(=O)[C@@H]2CCCN2C(=O)[C@@H]2CCCN2C1=O [3BP-3653] (Hexanoyl-CPPTEFC-NH2; linker 1-7 via TBMB(SCH2CH2NH-DOTA)): > 8.00
CCCC[C@H](NC(=O)CCC(=O)NCCCOCCOCCOCCCNC(=O)CN1CCN(CC(=O)O)CCN(CC(=O)O)CCN(CC(=O)O)CC1)C(=O)N[C@H]1CSCc2cc(CSCCNC(=O)CN3CCN(CC(=O)O)CCN(CC(=O)O)CCN(CC(=O)O)CC3)cc(c2)CSC[C@@H](C(=O)O)NC(=O)[C@H](Cc2ccccc2)NC(=O)[C@H](CCC(N)=O)NC(=O)[C@H]([C@@H](C)O)NC(=O)[C@@H]2CCCN2C(=O)[C@@H]2CCCN2C1=O: 7.10 to 8.00
CCCCCC(=O)N[C@H]1CSCc2cccc(c2)CSC[C@@H](C(N)=O)NC(=O)[C@H](Cc2ccccc2)NC(=O)[C@H](CCC(=O)O)NC(=O)[C@H](CCCNC(=O)c2cnccn2)NC(=O)[C@@H]2CCCN2C(=O)[C@@H]2CCCN2C1=O [3BP-3355] (Hexanoyl-CPP[Orn](Pyrazinecarbonyl)EFC-NH2; linker 1-7 via mXylylene): < 6.00
C[C@@H](O)[C@@H]1NC(=O)[C@@H]2CCCN2C(=O)[C@@H]2CCCN2C(=O)[C@@H](NC(=O)CCNC(=O)CN2CCN(CC(=O)O)CCN(CC(=O)O)CCN(CC(=O)O)CC2)CSCc2cccc(c2)CSC[C@@H](C(=O)N[C@@H](CC(=O)O)C(=O)N[C@@H](Cc2c[nH]cn2)C(=O)N(C)[C@@H](Cc2ccccc2)C(=O)N[C@@H](CCCNC(=N)N)C(=O)N[C@@H](CC(=O)O)C(N)=O)NC(=O)[C@H](Cc2ccccc2)NC(=O)[C@H](CCC(=O)O)NC1=O [3BP-3264] ({DOTA-βAla}-CPPTEFCDH[NMeF]RD-NH2; linker 1-7 via mXylylene): 7.10 to 8.00
CCCCCC(=O)N[C@H]1CSCc2cccc(c2)CSC[C@@H](C(N)=O)NC(=O)[C@H](Cc2ccccc2)NC(=O)[C@H](CCC(N)=O)NC(=O)[C@H]([C@@H](C)O)NC(=O)[C@@H]2CCCN2C(=O)CN(CC(C)C)C1=O [3BP-3749] (Hexanoyl-C[Nleu]PTQFC-NH2; linker 1-7 via mXylylene): < 6.00

Field: next compound
Write down the reported pIC50 of CCCCNC(=O)N[C@H]1CSCc2cc(cc(CN3CCN(C(=O)C(CNCCN)CNCCN)CC3)c2)CSC[C@@H](C(=O)O)NC(=O)[C@H](Cc2ccccc2)NC(=O)[C@H](CCC(N)=O)NC(=O)[C@H]([C@@H](C)O)NC(=O)[C@@H]2CCCN2C(=O)[C@@H]2CCCN2C1=O , test system: UniProt Q12884. > 8.00
